# System name: Phosphatidylinositol 4,5-bisphosphate 3-kinase catalytic subunit alpha isoform (Homo sapiens, UniProt P42336)
# Sequence (P42336 whole entry, canonical isoform): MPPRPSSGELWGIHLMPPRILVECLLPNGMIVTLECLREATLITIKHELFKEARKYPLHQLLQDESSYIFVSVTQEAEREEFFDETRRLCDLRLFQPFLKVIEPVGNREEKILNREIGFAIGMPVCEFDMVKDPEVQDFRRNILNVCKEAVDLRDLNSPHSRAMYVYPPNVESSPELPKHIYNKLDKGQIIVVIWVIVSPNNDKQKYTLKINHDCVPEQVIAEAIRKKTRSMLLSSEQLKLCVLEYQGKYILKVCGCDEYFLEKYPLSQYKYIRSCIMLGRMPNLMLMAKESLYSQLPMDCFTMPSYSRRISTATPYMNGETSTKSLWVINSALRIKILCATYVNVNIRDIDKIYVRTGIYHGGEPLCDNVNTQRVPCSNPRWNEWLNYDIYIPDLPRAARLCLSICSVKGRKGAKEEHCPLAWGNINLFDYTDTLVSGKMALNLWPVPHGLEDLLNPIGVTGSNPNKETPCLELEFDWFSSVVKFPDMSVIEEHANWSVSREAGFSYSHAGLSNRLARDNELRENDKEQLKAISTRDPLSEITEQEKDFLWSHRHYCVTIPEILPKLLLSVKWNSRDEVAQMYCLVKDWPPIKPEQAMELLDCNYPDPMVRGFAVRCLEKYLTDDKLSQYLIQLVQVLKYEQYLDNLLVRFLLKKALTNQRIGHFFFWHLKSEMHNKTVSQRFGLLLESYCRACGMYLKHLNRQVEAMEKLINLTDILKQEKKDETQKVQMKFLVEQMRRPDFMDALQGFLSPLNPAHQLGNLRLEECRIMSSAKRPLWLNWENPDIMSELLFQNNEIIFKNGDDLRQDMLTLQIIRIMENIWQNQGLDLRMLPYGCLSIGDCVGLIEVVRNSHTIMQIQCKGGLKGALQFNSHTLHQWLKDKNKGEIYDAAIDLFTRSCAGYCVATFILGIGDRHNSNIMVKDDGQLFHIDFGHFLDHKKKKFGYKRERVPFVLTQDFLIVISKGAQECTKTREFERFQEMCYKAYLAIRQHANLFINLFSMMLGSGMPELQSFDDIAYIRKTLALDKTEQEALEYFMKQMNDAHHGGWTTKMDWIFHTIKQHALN
# Assay: Inhibition of recombinant human PI3K-alpha using PIP2:3PS as substrate preincubated for 15 mins followed by ATP addition measured after 1 hr by ADP-Glo assay
pIC50: −log10 of the molar value.

{"Smiles representation": "COc1ncc(-c2ccc3c(c2)N(CCCN2CCOCC2)C(=O)CO3)cc1NS(=O)(=O)c1ccc(F)cc1F", "pIC50": 7.57}

---

# System name: Phosphatidylinositol 4,5-bisphosphate 3-kinase catalytic subunit beta isoform (Homo sapiens)
# Sequence (P42338 whole entry, canonical isoform): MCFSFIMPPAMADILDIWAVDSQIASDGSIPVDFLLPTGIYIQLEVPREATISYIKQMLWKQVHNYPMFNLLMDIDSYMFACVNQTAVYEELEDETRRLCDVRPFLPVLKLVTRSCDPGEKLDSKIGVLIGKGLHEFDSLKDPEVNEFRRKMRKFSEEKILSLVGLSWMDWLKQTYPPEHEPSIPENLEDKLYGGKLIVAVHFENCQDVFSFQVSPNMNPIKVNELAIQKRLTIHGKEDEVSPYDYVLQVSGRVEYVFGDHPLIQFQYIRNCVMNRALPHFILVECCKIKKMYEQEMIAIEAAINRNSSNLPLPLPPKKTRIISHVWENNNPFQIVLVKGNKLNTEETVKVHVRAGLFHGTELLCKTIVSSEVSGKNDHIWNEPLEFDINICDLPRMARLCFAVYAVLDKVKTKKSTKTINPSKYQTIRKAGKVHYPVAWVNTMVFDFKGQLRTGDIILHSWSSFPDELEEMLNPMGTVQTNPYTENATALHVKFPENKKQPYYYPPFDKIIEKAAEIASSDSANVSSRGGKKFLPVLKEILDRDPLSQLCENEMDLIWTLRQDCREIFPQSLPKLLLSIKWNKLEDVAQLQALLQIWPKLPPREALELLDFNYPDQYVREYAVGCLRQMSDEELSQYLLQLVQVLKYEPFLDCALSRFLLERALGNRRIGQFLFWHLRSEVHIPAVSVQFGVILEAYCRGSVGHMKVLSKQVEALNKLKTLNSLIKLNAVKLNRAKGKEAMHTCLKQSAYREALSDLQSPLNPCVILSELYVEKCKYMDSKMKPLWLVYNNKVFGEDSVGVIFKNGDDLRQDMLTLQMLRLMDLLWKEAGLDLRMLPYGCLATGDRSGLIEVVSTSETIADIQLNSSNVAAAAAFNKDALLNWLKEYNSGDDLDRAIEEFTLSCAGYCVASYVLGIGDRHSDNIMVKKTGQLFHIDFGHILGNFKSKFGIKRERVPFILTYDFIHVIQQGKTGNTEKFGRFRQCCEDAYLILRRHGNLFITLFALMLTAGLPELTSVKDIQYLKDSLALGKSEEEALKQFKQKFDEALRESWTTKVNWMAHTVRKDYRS
# Assay: Inhibition of recombinant human PI3K-beta using PIP2:3PS as substrate preincubated for 15 mins followed by ATP addition measured after 1 hr by ADP-Glo assay

{"Smiles representation": "COc1ncc(-c2ccc3c(c2)N(CCCN2CCOCC2)C(=O)CO3)cc1NS(=O)(=O)c1ccc(F)cc1F", "Unit": "nM", "IC50": 382}

---

# System name: Phosphatidylinositol 4,5-bisphosphate 3-kinase catalytic subunit delta isoform (Homo sapiens)
# Sequence (O00329 whole entry, canonical isoform): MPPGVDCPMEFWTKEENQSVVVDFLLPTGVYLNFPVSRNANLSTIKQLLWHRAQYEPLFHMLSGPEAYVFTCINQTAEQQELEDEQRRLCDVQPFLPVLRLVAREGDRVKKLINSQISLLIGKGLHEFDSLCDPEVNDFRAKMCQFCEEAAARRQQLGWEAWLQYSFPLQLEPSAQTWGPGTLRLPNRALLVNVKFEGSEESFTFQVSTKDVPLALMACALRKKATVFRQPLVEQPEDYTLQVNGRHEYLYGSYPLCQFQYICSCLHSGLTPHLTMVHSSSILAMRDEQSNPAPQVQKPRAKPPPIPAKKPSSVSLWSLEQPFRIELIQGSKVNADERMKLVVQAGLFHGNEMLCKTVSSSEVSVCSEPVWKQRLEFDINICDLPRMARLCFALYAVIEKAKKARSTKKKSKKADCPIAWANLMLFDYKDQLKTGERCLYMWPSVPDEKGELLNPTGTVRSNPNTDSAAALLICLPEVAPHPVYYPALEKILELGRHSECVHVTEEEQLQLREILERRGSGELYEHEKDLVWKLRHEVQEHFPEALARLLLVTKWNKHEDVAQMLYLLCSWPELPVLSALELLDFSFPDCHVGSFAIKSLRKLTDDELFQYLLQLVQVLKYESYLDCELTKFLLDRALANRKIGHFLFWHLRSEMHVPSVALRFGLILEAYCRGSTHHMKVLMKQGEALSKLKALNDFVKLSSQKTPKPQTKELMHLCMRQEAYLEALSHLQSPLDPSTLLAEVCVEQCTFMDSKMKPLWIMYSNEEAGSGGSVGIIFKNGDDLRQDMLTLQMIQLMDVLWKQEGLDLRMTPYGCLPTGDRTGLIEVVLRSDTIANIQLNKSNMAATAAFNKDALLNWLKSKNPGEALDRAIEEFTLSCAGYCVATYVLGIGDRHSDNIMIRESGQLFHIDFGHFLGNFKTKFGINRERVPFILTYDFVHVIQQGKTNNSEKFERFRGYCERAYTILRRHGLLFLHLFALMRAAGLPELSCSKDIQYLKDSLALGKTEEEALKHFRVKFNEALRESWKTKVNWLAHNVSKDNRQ
# Assay: Inhibition of recombinant human PI3K-delta using PIP2:3PS as substrate preincubated for 15 mins followed by ATP addition measured after 1 hr by ADP-Glo assay
pIC50: −log10 of the molar value.

{"Smiles representation": "COc1ncc(-c2ccc3c(c2)N(CCCN2CCOCC2)C(=O)CO3)cc1NS(=O)(=O)c1ccc(F)cc1F", "pIC50": 6.37}

Reference source for all entries: ChEMBL document CHEMBL4229415
